Provide the reported GI50 of each item.
System: SK-OV-3
Assay: NCI tumour cell line growth inhibition, 48 h
Activity calls are given as the source filed them. Cut-off read from the data, not from the text of the source: active = GI50 up to about 1.1 µM and inactive = higher.

**Query** State, in one line, measured GI50 of "N#Cc1c(-c2ccccc2)c(/C=N/c2ccc(Cl)cc2)c(=O)n2c1[nH]c1ccccc12"
**Result** > 100 µM (inactive)

**Query** Fill in reported GI50 for this entry: OC1(c2ccccc2)C2CCN(CC2)C1CN1CCOCC1 (stereo not drawn)
**Result** > 100 µM (inactive)

**Query** Dear colleague, please send me the reported GI50 for CC1OC2=N[C@@H]1C(=O)N[C@@H](Cc1ccccc1)C1=N[C@H](C(=O)N[C@@H](Cc3ccccc3)C3=N[C@H](C(=O)N[C@H]2Cc2ccccc2)C(C)O3)C(C)O1 (stereo partly drawn) when you can.
**Result** 49.7 µM (inactive)

**Query** Answer with the recorded GI50 of "O=C1NCN(c2ccccc2)C12CCN(CCCN1CCN(CCOC(c3ccc(F)cc3)c3ccc(F)cc3)CC1)CC2" only.
**Result** 2.22 µM (inactive)

**Query** Name the recorded GI50 of the item CC(C)=CCC/C(C)=C/CCC(C(=O)COCc1ccccc1)P1(=O)OC(C)(C)CN1C(C)(C)C (stereo not drawn) in your answer.
**Result** > 100 µM (inactive)

**Query** Report measured GI50; entry is "Cc1c2cc[n+](Cc3ccc(I)cc3)cc2c(C)c2c1[nH]c1ccccc12"
**Result** 3.84 µM (inactive)

**Query** Respond only with GI50 recorded for "COc1ccc(NC(=O)/C(=N\NC(=O)C[n+]2ccccc2)c2c(O)c3ccc(O)cc3oc2=O)c([N+](=O)[O-])c1"
**Result** > 100 µM (inactive)

**Query** Indicate its recorded GI50; the compound in question is CCn1c2c(c3ccccc31)[C@@H](c1ccc(Cl)cc1)CC1C(=O)N(c3ccccc3)C(=O)C21 (stereo partly drawn)
**Result** > 100 µM (inactive)

**Query** Give GI50 for the following compound: COC(=O)c1c(OC(=O)c2ccccc2)noc1CC(=O)OC1C=CCCC1 (stereo not drawn)
**Result** > 100 µM (inactive)

**Query** Return the recorded GI50 value; entry: "Cc1nnc(S(=O)(=O)c2ccc(/N=N/c3c(N)nc(N)nc3N)cc2)s1"
**Result** > 100 µM (inactive)

**Query** Given the compound Cc1ccc([N+](=O)[O-])cc1NC(=O)/C(=N/NC(=S)NN)C1SC(=S)NC1=O (stereo not drawn) , write its reported GI50.
**Result** > 100 µM (inactive)

**Query** Assign GI50 to the following record: "CC(=N/N=C/c1ccccn1)/C(C)=N/N=C(C)/C(C)=N/N=C(C)/C(C)=N/N=C(C)/C(C)=N\N=C\c1ccccn1"
**Result** > 100 µM (inactive)

**Query** Give a short answer stating reported GI50 for COc1cc2c(c(OC)c1OC)-c1ccc(SC)c(=O)cc1C(NC(=O)c1ccccc1)CC2 (stereo not drawn) .
**Result** 0.027 µM (active)

**Query** Supply recorded GI50 for "O=C1c2cccc3cccc(c23)C(=O)N1CCCNCCCCNCCCNCCCN1C(=O)c2cccc3cccc(c23)C1=O" here.
**Result** 1.5 µM (inactive)

**Query** Determine from records and report GI50 for "O=C(O)/C=C\C(=O)Nn1c(Cc2ccc(Cl)cc2)n[nH]c1=O"
**Result** > 100 µM (inactive)

**Query** Give the measured GI50 for "CCOC(=O)c1c[nH]cc1-c1cn(S(=O)(=O)c2ccccc2)cc1C"
**Result** 25.9 µM (inactive)

**Query** Please report GI50 for the following compound: COC1N(C2CC(O)C(CO)O2)C(=O)NC(=O)C1(F)Br (stereo not drawn)
**Result** > 50 µM (inactive)

**Query** Retrieve GI50 measured for "O=[N+]([O-])c1ccc2nc(Nc3ccccc3)c(Nc3ccccc3)nc2c1" and print it.
**Result** 0.787 µM (active)

====

Tested on: HT-29
Assay: NCI tumour cell line growth inhibition, 48 h
Active and inactive are the calls of the source. Cut-off read from the data, not from the text of the source: active = GI50 up to about 1.1 µM and inactive = higher. Where a SMILES comes first, the peptide text is derived from it. [ ]: non-standard residue; d: D form. The star is where a group is joined. ξ: configuration not given here. ξD = NC(CC(=O)O)C(=O)O; Boc = CC(C)(C)OC(=O)*; Aib = CC(C)(N)C(=O)O; OBn = c1ccc(CO*)cc1
ASSAY_METRIC: GI50

**Query** Output GI50 of "C=CCCCCCCCCC(=O)NS(=O)(=O)c1ccccc1"
**Result** > 100 µM (inactive)

**Query** Fill in reported GI50 for this entry: CC1(C)C(=O)c2ccccc2OC1N1CCN(C2Oc3ccccc3C(=O)C2(C)C)CC1 (stereo unspecified)
**Result** > 100 µM (inactive)

**Query** State, in one line, measured GI50 of C=CCc1cc(OC)c2c(c1)C(OC)CC(c1ccc(OC)c(OC)c1)O2 (stereo unspecified)
**Result** > 100 µM (inactive)

**Query** Check the records and state GI50 for "C1CSCCCSCCCSCCCSCCCSCCCSCCCSCCCSC1"
**Result** > 100 µM (inactive)

**Query** Supply recorded GI50 for CC(C)(C)OC(=O)NC(CC(=O)OCc1ccccc1)C(=O)NC(C)(C)C(N)=O (stereo unspecified) (Boc-[ξD](OBn)-[Aib]-NH2) here.
**Result** > 100 µM (inactive)

**Query** For the molecule Nc1nc(N)c2ncn(CCCC(c3ccccc3)P(=O)(O)O)c2n1 (stereo unspecified) , give its reported GI50.
**Result** > 100 µM (inactive)

**Query** Using the record for COc1cc(OC)c(C2c3cc4c(cc3OC(N3CCOCC3)C2C)OCO4)c(OC)c1 (stereo unspecified) , state its measured GI50.
**Result** 21.9 µM (inactive)

**Query** Please report GI50 for the following molecule: Cc1cc2c(cc1N)C(C)C1(CCC(=O)N2Cc2ccccc2)OCCO1 (stereo unspecified)
**Result** > 100 µM (inactive)

**Query** In one line, give reported GI50 of the entry "C#CCSc1cnc2ccccc2c1Sc1c[nH]c2ccccc2c1=O" .
**Result** 21.2 µM (inactive)

**Query** Respond only with GI50 recorded for "CC(C)c1ccc(/C(C(=O)O)=C(\O)C(=O)O)cc1"
**Result** > 100 µM (inactive)

**Query** Consider the molecule CC(=O)C(O)N1C(=O)C=CC1=O (stereo unspecified) . State its measured GI50.
**Result** 16.4 µM (inactive)

====

System: SF-539
Test: NCI tumour cell line growth inhibition, 48 h
Active and inactive are the calls of the source. Rule as the data show it: active = GI50 up to about 1.1 µM and inactive = higher.
ASSAY_METRIC: GI50

**Query** Return reported GI50. Input molecule: "CC(=O)Oc1ccc2c(C)cc(=O)oc2c1OC(C)=O"
**Result** > 100 µM (inactive)

**Query** Given the molecule "C=CCn1c(N)c(C#N)c(C#N)c1-c1ccccc1" , write its reported GI50.
**Result** > 100 µM (inactive)

**Query** Hello, please tell me recorded GI50 for this one: "COc1cc2c(NCCCCCO)ncnc2c(OC)c1OC"
**Result** > 100 µM (inactive)

**Query** Give me measured GI50, please, for this molecule: CC(=O)C(O)N1C(=O)C=CC1=O (stereo not given)
**Result** 5.41 µM (inactive)

**Query** Return GI50 for the following molecule: "C1CSCCCSCCCSCCCSCCCSCCCSCCCSCCCSC1"
**Result** > 100 µM (inactive)

**Query** Return value of GI50 for input "CC(=O)NNc1nc(C)c(C(=O)NNC(=O)C(=O)Nc2ccc(C)cc2[N+](=O)[O-])s1" , no commentary.
**Result** > 100 µM (inactive)

**Query** Name the recorded GI50 of the item "COc1c(C(=O)/C(=N/Nc2ccc(C(=O)O)cc2)C(C)=O)c(O)cc2occc12" in your answer.
**Result** > 100 µM (inactive)

**Query** Write down GI50 measured for item "O=c1/c(=C/c2cccc3ccccc23)sc2nc3ccccc3n12"
**Result** > 100 µM (inactive)

**Query** Please give measured GI50 of the following entry: "CCc1cc(Cc2ccc(C)c(NC(=O)C(=O)C3C(=O)NC(=O)NC3=O)c2CC)cc(C)c1NC(=O)C(=O)C1C(=O)NC(=O)NC1=O"
**Result** > 100 µM (inactive)

**Query** Give the reported value of GI50 for this record: "O=C(O)/C=C\C(=O)Nn1c(Cc2ccc(Cl)cc2)n[nH]c1=O"
**Result** > 100 µM (inactive)

**Query** Recall and state the measured GI50 for "COC1=CC(=Nc2c(Cl)cc(Cl)cc2OC(=O)c2ccc([N+](=O)[O-])cc2)C=C(OC)C1=O" .
**Result** 5.81 µM (inactive)

**Query** Give recorded GI50. N#CC1=C(N)N2C(=O)/C(=C/c3ccccc3)SC2C(c2nc3ccccc3[nH]2)=C1c1ccccc1 (stereo not given)
**Result** 1.91 µM (inactive)

**Query** Supply GI50 value. Item: COc1ccccc1C1SCC(=O)N1c1ccc(-n2c(-c3ccccc3)nc3ccccc3c2=O)cc1 (stereo not given)
**Result** > 100 µM (inactive)

**Query** // Input: C[C@H](CCC(=O)O[C@@H]1CC[C@@]2(C)C(CC[C@H]3[C@@H]4CC[C@H]([C@H](C)CCc5nc6ccccc6[nH]5)[C@@]4(C)CC[C@@H]32)C1)[C@H]1CC[C@H]2[C@@H]3CCC4C[C@H](O)CC[C@]4(C)[C@H]3CC[C@]12C (stereo not given in full) . Output its GI50 only.
**Result** > 100 µM (inactive)

**Query** For "N=C(N)NCCCC(=O)O" , write its GI50.
**Result** > 100 µM (inactive)

**Query** State, in one line, measured GI50 of "O=C(/C=C/c1cccs1)c1ccc(Cl)s1"
**Result** 28.6 µM (inactive)

**Query** Return GI50 for the following molecule: "CSC(=N\c1ccccc1)/N=C(\SCc1ccccc1)N(C)C"
**Result** 1.28 µM (inactive)

**Query** Let me know recorded GI50 for CC(=O)Nc1cc2nc3n(c2cc1C)CCC3OC(C)=O (stereo not given) , thanks.
**Result** > 100 µM (inactive)

**Query** Check the records and state GI50 for COC(=O)c1c(OC(=O)c2ccccc2)noc1CC(=O)OC1C=CCCC1 (stereo not given)
**Result** > 100 µM (inactive)

**Query** Output measured GI50 for this item: "O=C1c2ccccc2C(=O)N1C(=S)c1ccccc1"
**Result** > 100 µM (inactive)
